Data provenance: the supplement of paper PMC7125110

B1: glmS ribozyme (parent)
chain: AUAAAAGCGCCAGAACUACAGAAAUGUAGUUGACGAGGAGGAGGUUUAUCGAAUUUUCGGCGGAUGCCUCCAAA

variants of: B1; experiment: self-cleavage kobs at 2500 uM GlcN6P; higher = faster cleavage; RNA array; conditions: with glucosamine-6-phosphate
Fewer inactive variants are shown than the library holds.
I'd appreciate it if you could supply self-cleavage kobs at 2500 uM GlcN6P values for the items below.

Which self-cleavage kobs at 2500 uM GlcN6P value is on record for A14U U47G C68G ? 5.08e-05 s⁻¹

Give its self-cleavage kobs at 2500 uM GlcN6P value. Item: A12U C50U U65C < 1e-05 s⁻¹

Entry under review: G32U G44U U47G A64C . Reported self-cleavage kobs at 2500 uM GlcN6P? < 1e-05 s⁻¹

For the variant shown here, A12G G51U G66A , give the reported self-cleavage kobs at 2500 uM GlcN6P. < 1e-05 s⁻¹

Value lookup for self-cleavage kobs at 2500 uM GlcN6P; key = A33U A48U G59A C61U C71U < 1e-05 s⁻¹

Record request: self-cleavage kobs at 2500 uM GlcN6P value, item A33C G38C A48G U56C < 1e-05 s⁻¹

I would be grateful if you could share the reported self-cleavage kobs at 2500 uM GlcN6P for G9C G38C C67U . < 1e-05 s⁻¹

Need self-cleavage kobs at 2500 uM GlcN6P of G9C G29U C50G C70G , thanks. 0.000253 s⁻¹

I am curious: what self-cleavage kobs at 2500 uM GlcN6P value has been reported for A14G C34U G35A G43C ? < 1e-05 s⁻¹

Which measured self-cleavage kobs at 2500 uM GlcN6P value corresponds to A33C G37A G60C ? < 1e-05 s⁻¹

Given the variant A33G A42C , what is its reported self-cleavage kobs at 2500 uM GlcN6P? < 1e-05 s⁻¹
